# targetOfAssay: activated human MMP13 (human, UniProt P45452 104-471)
# protocolNotes: cell-based or functional assay
measureName: IC50, human fluorogenic collagen assay (nM)
Report as a plain number; the unit nM is understood.

C0101PMP516G08 (VHH, Profile 2 Nanobody; also called C0101516G08) VHH: DVQLVESGGGLVQPGGSLRLSCAGSGSIFRINVMAWYRQAPGKQRELVAAITSGGTTNYADSVKGRFTISRDNSKNTVYLQMNSLRPEDTAVYYCYADIGWPYVLDYDFWGQGTLVTVSS; 3.78

Kindly consider the entry below.
Output measured IC50, human fluorogenic collagen assay for this item: C0101PMP517A01 (VHH, Profile 2 Nanobody; also called C0101517A01; C010100087 (parental)) VHH: DVQLVESGGGLVQPGGSLRLSCAASGRTFSSYAMGWFRQAPGKEREFVAAISWSGGSTYYADSVKGRFTISRDNSKNTVYLQMNSLRPEDTAVYYCTAALAVYGPNRYRYGPVGEYNYWGQGTLVTVSS
10.8
